Tested on: calcium channel binding site for [^3 H]-Nitrendipine (rat brain membranes)
Assay: [^3 H]-Nitrendipine binding to rat brain membranes
Design: species or system rat (male Wistar)
Conditions: Table 1a
measurement.name: modulation of [^3 H]-Nitrendipine binding (in words)

compound="CCCCCC(CP(=O)(OCCCC)OCCCC)CP(=O)(OCCCC)OCCCC [Compound 66]" obs_value="strong inhibitors"
compound="CC(C)OP(=O)(CC(CCCc1ccccc1)CP(=O)(OC(C)C)OC(C)C)OC(C)C [Compound 56]" obs_value=activators
compound="CC(C)OP(=O)(CC(Cc1ccccc1)CP(=O)(OC(C)C)OC(C)C)OC(C)C [Compound 55]" obs_value=activators
compound="CCCCOP(=O)(CC(Cc1ccccc1)CP(=O)(OCCCC)OCCCC)OCCCC [Compound 73]" obs_value="strong inhibitors"
compound="CCCCCOP(=O)(CC(CCCc1ccccc1)CP(=O)(OCC)OCCCCC)OCC (stereo not drawn) [Compound 117]" obs_value="strong inhibitors"
compound="CCCCOP(=O)(CC(CCOc1ccccc1)CP(=O)(OCCCC)OCCCC)OCCCC [Compound 79]" obs_value="strong inhibitors"
compound="CCCCOP(=O)(CC(CCCc1ccccc1)CP(=O)(OCCCC)OCCCC)OCCCC [Compound 75]" obs_value="strong inhibitors"
compound="CCCCCCOP(=O)(CC(CCCc1ccccc1)CP(=O)(OCCCCCC)OCCCCCC)OCCCCCC [Compound 113]" obs_value="strong inhibitors"
compound="CCCCOP(=O)(CC(CCCc1cccnc1)CP(=O)(OCCCC)OCCCC)OCCCC [Compound 88]" obs_value="strong inhibitors"
compound="CCCCOP(=O)(CC(Cc1cccc2ccccc12)CP(=O)(OCCCC)OCCCC)OCCCC [Compound 83]" obs_value="strong inhibitors"
compound="CCCCOP(=O)(CC(CCCC1CCCCC1)CP(=O)(OCCCC)OCCCC)OCCCC [Compound 68]" obs_value="strong inhibitors"
compound="CCOP(=O)(CC(Cc1ccc(-c2ccccc2)cc1)CP(=O)(OCC)OCC)OCC [Compound 38]" obs_value="strong inhibitors"

###

Tested on: calcium channel binding site for [^3 H]-Nitrendipine (rat brain membranes)
Assay: [^3 H]-Nitrendipine binding to rat brain membranes
Parameters: species or system rat (male Wistar)
Settings: compound concentration 1.0 μM; Table 1a
measurement.name: Specifically bound [^3 H]-Nitrendipine % of control value

compound="CCCCOP(=O)(CC(Cc1cc(OC)c(OC)c(OC)c1)CP(=O)(OCCCC)OCCCC)OCCCC [Compound 82]" obs_value="90 % of control value"
compound="O=P(O)(O)CC(Cc1ccccc1)CP(=O)(O)O [Compound 2]" obs_value="98 % of control value"
compound="CCCCCCOP(=O)(CC(CCCc1ccccc1)CP(=O)(OCCCCCC)OCCCCCC)OCCCCCC [Compound 113]" obs_value="20 % of control value"
compound="CCOP(=O)(CC(CCc1ccccc1)CP(=O)(OCC)OCC)OCC [Compound 26]" obs_value="89 % of control value"
compound="CCCCOP(=O)(CC(CCCC1CCCCC1)CP(=O)(OCCCC)OCCCC)OCCCC [Compound 68]" obs_value="0 % of control value"
compound="CCCCCOP(=O)(CC(CCCc1ccccc1)CP(=O)(OCC)OCCCCC)OCC (stereo not drawn) [Compound 117]" obs_value="79 % of control value"
compound="CC(C)OP(=O)(CC(CCCc1ccccc1)CP(=O)(OC(C)C)OC(C)C)OC(C)C [Compound 56]" obs_value="115 % of control value"
compound="CCOP(=O)(CC(Cc1ccc(-c2ccccc2)cc1)CP(=O)(OCC)OCC)OCC [Compound 38]" obs_value="60 % of control value"
compound="CCCCOP(=O)(CC(CCCc1ccccc1)CP(=O)(OCCCC)OCCCC)OCCCC [Compound 75]" obs_value="22 % of control value"
compound="CC(C)COP(=O)(CC(CCCc1ccccc1)CP(=O)(OCC(C)C)OCC(C)C)OCC(C)C [Compound 111]" obs_value="57 % of control value"
compound="CCCCOP(=O)(CC(Cc1cccc2ccccc12)CP(=O)(OCCCC)OCCCC)OCCCC [Compound 83]" obs_value="36 % of control value"
compound="CC(C)OP(=O)(CC(Cc1ccccc1)CP(=O)(OC(C)C)OC(C)C)OC(C)C [Compound 55]" obs_value="156 % of control value"
compound="O=P(O)(O)CC(CCc1ccccc1)CP(=O)(O)O [Compound 3]" obs_value="94 % of control value"
compound="CCCCOP(=O)(CC(CCCc1cccnc1)CP(=O)(OCCCC)OCCCC)OCCCC [Compound 88]" obs_value="69 % of control value"
compound="CCOP(=O)(CC(CCCc1ccccc1)CP(=O)(OCC)OCC)OCC [Compound 27]" obs_value="95 % of control value"
compound="CCCCOP(=O)(CC(CCOc1ccccc1)CP(=O)(OCCCC)OCCCC)OCCCC [Compound 79]" obs_value="0 % of control value"
compound="COP(=O)(CC(CCc1ccccc1)CP(=O)(OC)OC)OC [Compound 11]" obs_value="96 % of control value"
compound="CCCCOP(=O)(CC(Cc1ccccc1)CP(=O)(OCCCC)OCCCC)OCCCC [Compound 73]" obs_value="81 % of control value"
